test.system: cloned human or rodent CNS receptors, channels, and transporters (PDSP panel) (Homo sapiens, UniProt P28221)
Construct: expressed in transfected cells
Sequence (P28221 whole entry): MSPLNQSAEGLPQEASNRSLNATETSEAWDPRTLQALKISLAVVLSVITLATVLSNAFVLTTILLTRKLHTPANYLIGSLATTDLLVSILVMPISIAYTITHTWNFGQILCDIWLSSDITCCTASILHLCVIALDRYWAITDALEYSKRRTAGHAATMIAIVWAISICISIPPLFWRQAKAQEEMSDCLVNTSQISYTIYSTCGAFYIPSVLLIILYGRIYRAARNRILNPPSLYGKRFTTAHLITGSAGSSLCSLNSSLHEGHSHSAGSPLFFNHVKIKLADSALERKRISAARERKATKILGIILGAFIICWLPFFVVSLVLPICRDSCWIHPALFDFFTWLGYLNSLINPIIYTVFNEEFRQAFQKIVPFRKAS
method.summary: PDSP GPCR panel primary binding assays at 10 μM
condition.set: Receptor 5-HT1D; primary assay, 10 μM; mean of Inhibition 1-4
Experimental: GPCR panel: Screening against the receptors within the PDSP panel offers an assessment of off-target pharmacological activity at cloned human or rodent CNS receptors, channels, and transporters that could confound CNS-related phenotypes. A total of 46–47 primary binding assays were run in quadruplicate on these compounds at 10 μM, with follow-up secondary binding assays in 11-point dose-response in triplicate for select compounds versus select receptors. […]
value.kind: Mean % (%)
Give the value in % but do not write % after it.

Query: I would be grateful if you could share the reported Mean % for O=c1oc2ccccc2cc1-c1cn2cc(Cc3ccc(F)cc3)sc2n1 [UNC10302680A, iMDK] .
Response: -3.85

Query: Can you check CCCCNc1ncc2c(-c3ccc(CN4CCN(C)CC4)cc3)cn([C@H]3CC[C@H](O)CC3)c2n1 [UNC2025C, UNC2025] next?
Response: 42.89

Query: And what about the molecule Cl.NC(=O)c1cnc(N[C@@H]2CCCC[C@@H]2N)nc1Nc1cccc(-n2nccn2)c1 [UNC10302682A, P505-15 (PRT06207 HCl)] ?
Response: 64.76

Query: Note, next up: c1cn2cc(-c3ccc4cn[nH]c4c3)nc(Nc3ccc(N4CCOCC4)cc3)c2n1 [UNC10302678A, Entospletinib (GS-9973)]
Response: 4.79
